From: ChEMBL document CHEMBL1933059

system: A549; test: Cytotoxicity against human A549 cells after 72 hrs by MTT assay; assay type: functional, cell-based; settings: A549, 72 h
Endpoint name: IC50 (µM)
One number for each entry, in µM.

Recorded results for 5 compounds are shown here.
{"columns": ["Mol", "IC50 [µM]"],
 "data": [
  ["CCOc1ccc(-c2nc3c4cccnc4c4ncccc4c3[nH]2)cc1", 1.96],
  ["Fc1ccc(-c2nc3c4cccnc4c4ncccc4c3[nH]2)cc1", 1.09],
  ["CCCOc1ccc(-c2nc3c4cccnc4c4ncccc4c3[nH]2)cc1", 18],
  ["CC(C)Oc1ccc(-c2nc3c4cccnc4c4ncccc4c3[nH]2)cc1", 31.9],
  ["Clc1ccc(-c2nc3c4cccnc4c4ncccc4c3[nH]2)cc1", 1.06]
]}

Next compound, IC50 to be filled in.
Input: Please supply the value of reported IC50 for the item `Cc1ccc(-c2nc3c4cccnc4c4ncccc4c3[nH]2)cc1`
Output: 1.33
